assay.summary: yeast display, Sf9 membrane polyspecificity reagent, FACS + sequencing; frameworks hold sequencing errors
readout.name: polyreactivity (PSR sort gate)

# count of solved cases: 5
seq	readout.name	reported.measurement
QVQLVESGGGLVQAGGSLRLSCAASGFTIYRYAMGWYRQAPGKERELVAAITGGGGSTYYADSVKGRFTISRDNAKNTVYLQMNSLKPEVTAVYYCAVDVYHKGQYRWSYGYWGQGTQVTVSS	polyreactivity (PSR sort gate)	low polyreactivity
QVQLVESGGGLVQAGGSLRLSCAASGRTFVRYAMGWYSQAPGKERELVAAISGIATRTYYADSVKGRFTISRDNAKNTVYLQMNSLKPEDTAVYYCNALYAKYDYWGQGTQVTVSS	polyreactivity (PSR sort gate)	high polyreactivity
QVQLVESGGGLVQAGGSLRLSCAASGRIFGGYAMGWYRQAPGKERELVAAIRDSGRTYYADSVKGRFTISRDNEKNTVYLQMNRLKPEDTAVYYCAADAHSSYSPFRWYDYWGQGSQVTVSS	polyreactivity (PSR sort gate)	low polyreactivity
QVQLVESGGGLVQAGGSLRLSCAASGFTITKYAMGWYRQAPGKERALVAAISRSAGSTYYADSVKGRFTISRDNAKHTVYLQMNSLKPEDTAVYYCNAYPKGRYAAAFPGMDYWGQGTQVTVSS	polyreactivity (PSR sort gate)	high polyreactivity
QVQLVESGGGLVQAGGSLRLTCAASGFIFPRYAMGWYRQAPGKERELVAAISYSGGSTYYADSVKGRFTISRDNAKNTVYLQMNSLKPEDTAVYYCNKDFPPQGQLRNMYYWGQGTQVTVSS	polyreactivity (PSR sort gate)	high polyreactivity

Fill in the blank: the reported polyreactivity (PSR sort gate) of `QVQLVESGGGLVQAGGTLRLSCAASGSTFGGYAMGLYRQAPGKERELVAAITWSGDTYYADSVKGRFTISRDNAKNSVYLQMNSLKPEDTAVYYCAAYSRVGPYRYAYWGQGTQVTVSS` is ____.
high polyreactivity

// data source = the nanobody polyreactivity screen of Harvey et al. (2022)
